koff for assorted binders
Biological target: T1, human transferrin receptor (recombinant, for surface plasmon resonance) (human, UniProt P02786 89-760)
T1 construct: also called huTfR; human transferrin receptor-biotinylated
T1 sequence (P02786 89-760 limits assumed): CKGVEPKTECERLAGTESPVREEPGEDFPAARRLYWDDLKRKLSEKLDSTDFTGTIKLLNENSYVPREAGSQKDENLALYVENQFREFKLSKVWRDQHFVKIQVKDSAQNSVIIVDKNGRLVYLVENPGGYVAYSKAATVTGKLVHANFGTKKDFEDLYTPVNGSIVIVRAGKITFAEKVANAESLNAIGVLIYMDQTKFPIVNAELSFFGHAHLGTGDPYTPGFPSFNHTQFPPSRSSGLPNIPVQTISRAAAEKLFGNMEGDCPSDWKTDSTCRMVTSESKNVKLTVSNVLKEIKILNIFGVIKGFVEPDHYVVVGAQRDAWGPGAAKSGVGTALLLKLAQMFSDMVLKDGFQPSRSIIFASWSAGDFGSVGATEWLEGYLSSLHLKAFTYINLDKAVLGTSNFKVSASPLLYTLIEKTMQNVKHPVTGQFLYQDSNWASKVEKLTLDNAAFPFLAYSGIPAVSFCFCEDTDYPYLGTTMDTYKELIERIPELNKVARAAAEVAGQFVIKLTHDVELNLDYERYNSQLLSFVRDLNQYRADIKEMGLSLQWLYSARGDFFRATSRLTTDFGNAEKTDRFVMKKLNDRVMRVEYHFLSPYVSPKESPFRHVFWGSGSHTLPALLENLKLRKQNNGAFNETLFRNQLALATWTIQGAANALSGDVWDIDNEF
Assay: SPR 25C
Measured quantity: koff (s⁻¹)

• 2/99 VH2/VL17 (antibody, V domains shown) VH: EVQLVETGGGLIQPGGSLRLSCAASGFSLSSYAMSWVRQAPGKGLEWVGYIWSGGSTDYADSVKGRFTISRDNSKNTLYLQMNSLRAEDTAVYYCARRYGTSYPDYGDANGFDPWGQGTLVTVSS VL: AIQLTQSPSSLSASVGDRVTITCRASQSISSYLAWYQQKPGKAPKLLIYRASTLASGVPSRFSGSGSGTDFTLTISSLQPEDFATYYCQQTYSSSNVDNTFGGGTKVEIK = 0.00712
• 2/99 VH1/VL3 (antibody, V domains shown) VH: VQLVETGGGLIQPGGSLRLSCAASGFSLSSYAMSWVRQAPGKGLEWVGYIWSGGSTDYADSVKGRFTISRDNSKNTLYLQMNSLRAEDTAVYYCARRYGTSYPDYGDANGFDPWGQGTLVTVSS VL: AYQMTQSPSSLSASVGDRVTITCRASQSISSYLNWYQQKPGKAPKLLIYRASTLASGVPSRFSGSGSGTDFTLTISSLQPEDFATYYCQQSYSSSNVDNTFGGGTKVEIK = 0.00431
• 2/99 VH12/VL2 (antibody, V domains shown) VH: QVQLQESGPGLVKPSETLSLTCTVSGFSLSSYAMSWIRQPPGKGLEWIGYIWSGGSTDYNPSLKSRVTISVDTSKNQFSLKLSSVTAADTAVYYCARRYGTSYPDYGDANGFDPWGQGTLVTVSS VL: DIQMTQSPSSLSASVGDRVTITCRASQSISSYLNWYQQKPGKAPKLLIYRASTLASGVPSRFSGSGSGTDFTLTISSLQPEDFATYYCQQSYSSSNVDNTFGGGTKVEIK = 0.00635
